Examples of compounds with documented AC50 follow.
tested on: Histamine H2 receptor (Homo sapiens, UniProt P25021); note: assay procedure not described here
Sequence (P25021 whole entry): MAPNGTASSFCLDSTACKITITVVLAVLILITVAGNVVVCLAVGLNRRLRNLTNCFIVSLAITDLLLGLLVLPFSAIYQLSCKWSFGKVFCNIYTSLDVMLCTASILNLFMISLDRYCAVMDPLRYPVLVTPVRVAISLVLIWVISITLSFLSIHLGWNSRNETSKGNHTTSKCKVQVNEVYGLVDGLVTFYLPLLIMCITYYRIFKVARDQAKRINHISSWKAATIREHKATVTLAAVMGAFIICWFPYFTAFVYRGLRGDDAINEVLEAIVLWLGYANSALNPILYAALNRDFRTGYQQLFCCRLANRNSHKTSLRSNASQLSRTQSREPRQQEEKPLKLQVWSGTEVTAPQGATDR
Type: functional, cell-based

INSERT INTO assay_data (compound, reported_measurement) VALUES
  ('CCN(CCO)CCCC(C)Nc1ccnc2cc(Cl)ccc12 (stereo not drawn) [HYDROXYCHLOROQUINE]', '> 10 µM'),
  ('OCCN(CCO)c1nc(N2CCCCC2)c2nc(N(CCO)CCO)nc(N3CCCCC3)c2n1', '> 30 µM'),
  ('CO/N=C(\C(=O)N[C@@H]1C(=O)N2C(C(=O)O)=C(CSc3nc(C)c(CC(=O)O)s3)CS[C@H]12)c1csc(N)n1', '> 30 µM'),
  ('CC1=C(/C=C/C(C)=C/C=C/C(C)=C/C(=O)Oc2c(C)c(C)c3c(c2C)CCC(C)(CCCC(C)CCCC(C)CCCC(C)C)O3)C(C)(C)CCC1 (stereo not drawn)', '> 30 µM'),
  ('NCCCNCCSP(=O)(O)O', '> 30 µM');

AC50 of CC(C)CN(C[C@@H](O)[C@H](Cc1ccccc1)NC(=O)O[C@H]1CCOC1)S(=O)(=O)c1ccc(N)cc1 on Histamine H2 receptor (Homo sapiens, UniProt P25021)?
> 10 µM

Now the same for CC(NC(C)(C)C)C(=O)c1cccc(Cl)c1 (stereo not drawn)
> 10 µM

Now the same for C=CC1=C(C(=O)O)N2C(=O)[C@@H](NC(=O)/C(=N\O)c3csc(N)n3)[C@H]2SC1
> 10 µM

Now the same for Cc1nnc2n1-c1ccc(Cl)cc1C(c1ccccc1)=NC2
> 10 µM

Now the same for Oc1cc(Cl)ccc1Oc1ccc(Cl)cc1Cl
> 30 µM

Now the same for COc1ccc(-c2cc(=S)ss2)cc1
> 30 µM

Now the same for CC(=O)SCC(Cc1ccccc1)C(=O)NCC(=O)OCc1ccccc1 (stereo not drawn)
> 30 µM

Now the same for C[C@]12CCC(=O)C=C1[C@@H]1C[C@@H]1[C@H]1[C@@H]3[C@@H]4C[C@@H]4[C@@]4(CCC(=O)O4)[C@@]3(C)CC[C@@H]12
> 30 µM

Now the same for CCOC(=O)Nc1ccc(NCc2ccc(F)cc2)nc1N
> 30 µM

Now the same for O=C(O)CCCC[C@@H]1SC[C@@H]2NC(=O)N[C@@H]21
> 10 µM

Now the same for CCCCOC(=O)C(=O)Nc1cccc(-c2nnn[nH]2)c1
> 30 µM

Now the same for CCC(=O)c1ccc2c(c1)N(CC(C)N(C)C)c1ccccc1S2 (stereo not drawn)
> 10 µM

Now the same for OCC(O)COc1ccc(Cl)cc1 (stereo not drawn)
> 10 µM
